All values here come from patent US20210395394A1.

# target_entity: Pan-species-specific antigen Plasmodium Lactate DeHydrogenase (Pan-PLDH) protein
# method: indirect ELISA, recombinant MA protein coated 1 ug/ml, antibody 8 ng/ml
Here the recorded OD value at 450 nm (refer to 630 nm) is given for each entry.
Field: numeric (OD). Do not append units.

Examples with their reported OD value at 450 nm (refer to 630 nm) follow.
Mutation 1 (antibody, mouse IgG2b, kappa, V domains shown) VH: QVQLQQPGAELVRPGASVKLSCKASGSSFTNYWMNWVKQRPGQGLEWIGMIHPSESETRINQKFKDKATLTVDKSSSTAYMQLSSLTAEDSAVYYCAKSGDFYTSYFDYWGQGTTLTVSS VL: DIQLTQSPASLSASVGETVTITCRGSGNLHNYLAWYQQKQGKSPQLLVYNARTIADGVPSRFSGSGSGTQYSLKINSLQPEDFGSYYCQSFWSTYTFGGGTKLEIKR : 1.1
Mutation 3 (antibody, mouse IgG2b, kappa, V domains shown) VH: QVQLQQPGAELVRPGASVKLSCKASGSSFTNYWMNWVKQRPGQGLEWIGMINPSESETRINQKFKDKATLTVDKSSSTAYMQLSSLTAEDSAVYYCAKSGDFYTSYFDYWGQGTTLTVSS VL: DIQLTQSPASLSASVGETVTITCRGSGNLHNYIAWYQQKQGKSPQLLVYNARTIADGVPSRFSGSGSGTQYSLKINSLQPEDFGSYYCQSFWSTYTFGGGTKLEIKR : 1.01
anti-Pan-PLDH 9G7 monoclonal antibody (antibody, mouse IgG2b, kappa, V domains shown) VH: QVQLQQPGAELVRPGASVKLSCKASGSSFTNYFMNWVKQRPGQGLEWIGMINPSESETRINQKFKDKATLTVDKSSSTAYMQLSSLTAEDSAVYYCAKSGDFYTSYWDYWGQGTTLTVSS VL: DIQLTQSPASLSASVGETVTITCRGSGNLHNYIAWYQQKQGKSPQLLVYNARTIADGVPSRFSGSGSGTQYSLKINSLQPEDFGSYYCQSFWSSYTFGGGTKLEIKR : 0.635

Lab note: Mutation 4 (antibody, mouse IgG2b, kappa, V domains shown) VH: QVQLQQPGAELVRPGASVKLSCKASGSSFTNYFMNWVKQRPGQGLEWIGMIHPSESETRINQKFKDKATLTVDKSSSTAYMQLSSLTAEDSAVYYCAKSGDFYTSYWDYWGQGTTLTVSS VL: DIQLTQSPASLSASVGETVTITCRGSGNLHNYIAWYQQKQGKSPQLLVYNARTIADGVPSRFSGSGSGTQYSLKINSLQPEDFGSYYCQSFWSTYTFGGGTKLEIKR gave OD value at 450 nm (refer to 630 nm) of 0.939
